The listing below reports IC50 for molecules tested on NEK6 (Homo sapiens, UniProt Q9HC98).
Sequence (Q9HC98 whole entry, species assumed): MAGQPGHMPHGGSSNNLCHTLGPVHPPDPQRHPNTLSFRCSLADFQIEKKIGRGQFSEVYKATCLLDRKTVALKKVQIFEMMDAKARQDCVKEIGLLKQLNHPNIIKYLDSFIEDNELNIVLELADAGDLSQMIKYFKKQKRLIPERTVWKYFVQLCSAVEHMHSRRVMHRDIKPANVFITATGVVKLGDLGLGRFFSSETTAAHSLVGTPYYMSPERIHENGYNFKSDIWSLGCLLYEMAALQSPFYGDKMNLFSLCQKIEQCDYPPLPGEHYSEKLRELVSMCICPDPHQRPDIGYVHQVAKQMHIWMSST

1) CN1CCN(C2CCN(c3ccc(Nc4ncc5c(n4)n4c(cc6ccccc64)c(=O)n5C)cn3)CC2)CC1
250 to 1000 nM

Entry under review: `CN1CCN(c2ccc(Nc3ncc4c(n3)n3c(cc5ccccc53)c(=O)n4C)c(C(F)(F)F)c2)CC1` . Reported IC50?
1000 to 5000 nM

Entry under review: `COc1cc(C(=O)N2CCN(C)CC2)ccc1Nc1ncc2c(n1)n1c(cc3ccccc31)c(=O)n2C` . Reported IC50?
1000 to 5000 nM

* * *

The listing below reports IC50 for molecules tested on NEK9 (Homo sapiens).

Past entries and their recorded results:
1) Cn1c(=O)c2cc3ccccc3n2c2nc(Nc3ccc(N4CCC(N5CCOCC5)CC4)cc3)ncc21 [Compound I-17]
≤ 50 nM
2) COc1cc(C2CCN(C)CC2)ccc1Nc1ncc2c(n1)n1c(cc3ccccc31)c(=O)n2C [Compound I-6]
50 to 250 nM
3) COc1cc(C(=O)N2CCC(N3CCN(C)CC3)CC2)ccc1Nc1ncc2c(n1)n1c(cc3ccccc31)c(=O)n2C [Compound I-4]
250 to 1000 nM

Alright, here's another molecule for you.
Entry under review: Cn1c(=O)c2cc3ccccc3n2c2nc(Nc3ccc(N4CCOCC4)nc3)ncc21 [Compound I-22] . Reported IC50?
50 to 250 nM

* * *

- target: CLK
- assay_method_text: kinase inhibition, CLK
pIC50: −log10 of the molar value.
# maps each entry to its pIC50

1. COc1cc(N2CCC(O)CC2)ccc1Nc1ncc2c(n1)n1c(cc3ccccc31)c(=O)n2C
6.00 to 6.60
2. Cn1c(=O)c2cc3ccccc3n2c2nc(Nc3cnn(CCN4CCOCC4)c3)ncc21
5.30 to 6.00
3. CN1CCN(c2ccc(Nc3ncc4c(n3)n3c(cc5ccccc53)c(=O)n4C)cc2)CC1
6.60 to 7.30
4. CN1CCN(c2ccc(Nc3ncc4c(n3)n3c(cc5ccccc53)c(=O)n4C)c(C(F)(F)F)c2)CC1
≤ 5.30
5. COc1cc(C(=O)N2CCC(N3CCN(C)CC3)CC2)ccc1Nc1ncc2c(n1)n1c(cc3ccccc31)c(=O)n2C
6.60 to 7.30

Entry under review: `COc1cc(C2CCN(C)CC2)ccc1Nc1ncc2c(n1)n1c(cc3ccccc31)c(=O)n2C` . Reported pIC50?
6.60 to 7.30

Entry under review: `COc1cc(C(=O)N2CCN(C)CC2)ccc1Nc1ncc2c(n1)n1c(cc3ccccc31)c(=O)n2C` . Reported pIC50?
6.00 to 6.60

* * *

# maps each entry to its pIC50
Target chain: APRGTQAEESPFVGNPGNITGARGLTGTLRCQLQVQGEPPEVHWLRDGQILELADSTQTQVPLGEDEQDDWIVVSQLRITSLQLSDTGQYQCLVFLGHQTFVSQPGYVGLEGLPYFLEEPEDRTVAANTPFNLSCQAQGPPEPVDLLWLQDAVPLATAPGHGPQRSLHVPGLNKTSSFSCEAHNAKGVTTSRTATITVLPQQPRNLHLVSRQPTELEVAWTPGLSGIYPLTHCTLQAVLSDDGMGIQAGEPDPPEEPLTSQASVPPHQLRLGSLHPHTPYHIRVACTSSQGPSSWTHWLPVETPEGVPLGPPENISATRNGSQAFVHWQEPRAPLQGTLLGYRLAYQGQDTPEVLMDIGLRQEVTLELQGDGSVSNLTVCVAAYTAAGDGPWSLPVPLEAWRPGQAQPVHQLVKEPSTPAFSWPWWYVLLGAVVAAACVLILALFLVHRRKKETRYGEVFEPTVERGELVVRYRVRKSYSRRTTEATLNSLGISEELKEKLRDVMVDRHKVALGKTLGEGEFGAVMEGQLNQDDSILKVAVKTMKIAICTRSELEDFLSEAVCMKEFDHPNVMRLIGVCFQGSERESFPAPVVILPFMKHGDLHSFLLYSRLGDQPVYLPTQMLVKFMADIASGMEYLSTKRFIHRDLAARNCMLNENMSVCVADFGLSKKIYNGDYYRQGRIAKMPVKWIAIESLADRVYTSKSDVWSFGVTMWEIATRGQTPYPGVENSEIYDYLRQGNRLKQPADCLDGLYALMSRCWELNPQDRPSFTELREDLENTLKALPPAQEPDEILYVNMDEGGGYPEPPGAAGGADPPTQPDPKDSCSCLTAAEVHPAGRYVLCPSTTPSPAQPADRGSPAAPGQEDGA
pIC50: −log10 of the molar value.

1) COc1cc(N2CCC(O)CC2)ccc1Nc1ncc2c(n1)n1c(cc3ccccc31)c(=O)n2C
≤ 5.30

Alright, here's another compound for you.
Entry under review: `COc1cc(C(=O)N2CCC(N3CCN(C)CC3)CC2)ccc1Nc1ncc2c(n1)n1c(cc3ccccc31)c(=O)n2C` . Reported pIC50?
≤ 5.30

* * *

The listing below reports pIC50 for compounds tested on NEK9 (Homo sapiens, UniProt Q8TD19).
Sequence (Q8TD19 whole entry, species assumed): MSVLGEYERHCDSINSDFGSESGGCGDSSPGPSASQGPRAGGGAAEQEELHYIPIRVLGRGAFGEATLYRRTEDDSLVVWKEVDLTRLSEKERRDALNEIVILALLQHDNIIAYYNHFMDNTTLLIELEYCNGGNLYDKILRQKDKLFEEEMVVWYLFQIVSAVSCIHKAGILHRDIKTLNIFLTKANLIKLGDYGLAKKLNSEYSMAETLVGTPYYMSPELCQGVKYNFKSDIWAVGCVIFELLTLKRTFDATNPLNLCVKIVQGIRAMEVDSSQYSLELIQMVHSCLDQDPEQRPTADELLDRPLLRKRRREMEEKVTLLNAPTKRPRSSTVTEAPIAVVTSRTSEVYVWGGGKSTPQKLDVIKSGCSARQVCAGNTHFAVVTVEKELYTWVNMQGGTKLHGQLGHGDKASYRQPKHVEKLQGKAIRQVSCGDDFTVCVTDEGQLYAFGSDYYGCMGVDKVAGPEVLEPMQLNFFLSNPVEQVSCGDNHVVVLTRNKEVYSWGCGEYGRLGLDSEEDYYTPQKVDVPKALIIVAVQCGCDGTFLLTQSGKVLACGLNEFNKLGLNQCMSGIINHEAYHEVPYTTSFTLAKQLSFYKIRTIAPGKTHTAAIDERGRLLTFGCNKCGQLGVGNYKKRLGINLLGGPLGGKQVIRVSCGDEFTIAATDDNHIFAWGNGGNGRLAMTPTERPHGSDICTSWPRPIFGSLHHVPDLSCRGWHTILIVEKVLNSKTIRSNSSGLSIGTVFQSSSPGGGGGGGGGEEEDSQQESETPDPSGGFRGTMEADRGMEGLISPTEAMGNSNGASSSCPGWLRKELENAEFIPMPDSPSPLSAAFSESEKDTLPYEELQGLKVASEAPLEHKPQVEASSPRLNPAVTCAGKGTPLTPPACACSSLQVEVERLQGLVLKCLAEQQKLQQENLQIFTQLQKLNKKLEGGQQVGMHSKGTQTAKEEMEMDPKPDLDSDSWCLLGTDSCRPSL
pIC50: −log10 of the molar value.

Past entries and their recorded results:
1) CN1C(=O)C2Cc3ccccc3N2c2nc(Nc3ccc(N4CCC(N5CCOCC5)CC4)cc3)ncc21 (centres unmarked)
≥ 7.30
2) CN1CCN(c2ccc(Nc3ncc4c(n3)N3c5ccccc5CC3C(=O)N4C)cc2)CC1 (centres unmarked)
≥ 7.30
3) CCN1CCN(c2ccc(Nc3ncc4c(n3)n3c(cc5ccccc53)c(=O)n4C)cc2)CC1
≥ 7.30
4) COc1cc(N2CCN(C)CC2)ccc1Nc1ncc2c(n1)N1c3ccccc3CC1C(=O)N2C (centres unmarked)
6.60 to 7.30
5) Cn1c(=O)c2cc3ccccc3n2c2nc(Nc3cnn(CC(F)F)c3)ncc21
6.60 to 7.30

Entry under review: `CN1CCN(c2ccc(Nc3ncc4c(n3)n3c(cc5ccccc53)c(=O)n4C)cc2)CC1` . Reported pIC50?
≥ 7.30

Entry under review: CCN1CCN(c2ccc(Nc3ncc4c(n3)N3c5ccccc5CC3C(=O)N4C)cc2)CC1 (centres unmarked) . Reported pIC50?
≥ 7.30

Entry under review: CN1C(=O)C2Cc3ccccc3N2c2nc(Nc3ccc(N4CCOCC4)cc3)ncc21 (centres unmarked) . Reported pIC50?
6.60 to 7.30

* * *

# maps each entry to its IC50
- target: CLK
- assay_method_text: kinase inhibition, CLK
- Format: biochemical

Past entries and their recorded results:
1. COc1cc(N2CCC(N3CCN(C)CC3)CC2)ccc1Nc1ncc2c(n1)n1c(cc3ccccc31)c(=O)n2C [Compound I-9]
0.25 to 1 µM
2. CN1CCN(C2CCN(c3ccc(Nc4ncc5c(n4)n4c(cc6ccccc64)c(=O)n5C)cn3)CC2)CC1 [Compound I-23]
0.05 to 0.25 µM

Alright, here's another compound for you.
Item: Cn1c(=O)c2cc3ccccc3n2c2nc(Nc3ccc(N4CCC(N5CCOCC5)CC4)cc3)ncc21 [Compound I-17] Test system: CLK Read-out: IC50 Value: ?
0.05 to 0.25 µM

* * *

pIC50: −log10 of the molar value.
The listing below reports pIC50 for compounds tested on NEK7 (Homo sapiens).
Sequence (Q8TDX7 whole entry, species assumed): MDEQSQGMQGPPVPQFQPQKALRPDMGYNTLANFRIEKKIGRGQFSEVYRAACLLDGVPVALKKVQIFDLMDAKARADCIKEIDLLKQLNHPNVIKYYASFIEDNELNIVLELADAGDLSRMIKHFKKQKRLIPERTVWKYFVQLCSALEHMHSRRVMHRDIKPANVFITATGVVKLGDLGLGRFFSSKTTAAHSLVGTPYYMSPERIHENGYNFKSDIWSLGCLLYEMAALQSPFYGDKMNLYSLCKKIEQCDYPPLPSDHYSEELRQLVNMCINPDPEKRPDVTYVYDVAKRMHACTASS

Past entries and their recorded results:
1) CN1CCN(c2ccc(Nc3ncc4c(n3)n3c(cc5ccccc53)c(=O)n4C)cc2C(F)(F)F)CC1
5.30 to 6.00
2) COc1cc(N2CCC(O)CC2)ccc1Nc1ncc2c(n1)n1c(cc3ccccc31)c(=O)n2C
6.60 to 7.30
3) COc1cc(C2CCN(C)CC2)ccc1Nc1ncc2c(n1)n1c(cc3ccccc31)c(=O)n2C
6.60 to 7.30

Alright, here's another compound for you.
Item: `CCN1CCN(c2ccc(Nc3ncc4c(n3)n3c(cc5ccccc53)c(=O)n4C)cc2)CC1` Test system: NEK7 (Homo sapiens) Read-out: pIC50 Value: ?
6.00 to 6.60

* * *

pIC50: −log10 of the molar value.
The listing below reports pIC50 for molecules tested on NEK9 (Homo sapiens, UniProt Q8TD19).

Past entries and their recorded results:
1. CN1CCN(C2CCN(c3ccc(Nc4ncc5c(n4)n4c(cc6ccccc64)c(=O)n5C)cn3)CC2)CC1
≥ 7.30
2. COc1cc(N2CCN(C)CC2)ccc1Nc1ncc2c(n1)n1c(cc3ccccc31)c(=O)n2C
6.60 to 7.30

Alright, here's another molecule for you.
Item: `Cn1c(=O)c2cc3ccccc3n2c2nc(Nc3cc(N4CCOCC4)cc(N4CCOCC4)c3)ncc21` Test system: NEK9 (Homo sapiens, UniProt Q8TD19) Read-out: pIC50 Value: ?
6.60 to 7.30

* * *

pIC50: −log10 of the molar value.
The listing below reports pIC50 for molecules tested on NEK9 (Homo sapiens, UniProt Q8TD19).

1) CN1C(=O)C2Cc3ccccc3N2c2nc(Nc3cc(N4CCOCC4)cc(N4CCOCC4)c3)ncc21 (stereo not drawn) [Compound I-31]
6.60 to 7.30
2) CN1CCN(c2ccc(Nc3ncc4c(n3)n3c(cc5ccccc53)c(=O)n4C)cc2C(F)(F)F)CC1 [Compound I-5]
6.60 to 7.30
3) CCn1c(=O)c2cc3ccccc3n2c2nc(Nc3ccc(N4CCN(C)CC4)c(C(F)(F)F)c3)ncc21 [Compound I-27]
6.00 to 6.60
4) COc1cc(C(=O)N2CCOCC2)ccc1Nc1ncc2c(n1)n1c(cc3ccccc31)c(=O)n2C [Compound I-14]
≥ 7.30
5) COc1cc(N2CCC(N3CCN(C)CC3)CC2)ccc1Nc1ncc2c(n1)n1c(cc3ccccc31)c(=O)n2C [Compound I-9]
≥ 7.30

Entry under review: COc1cc(N2CCC(O)CC2)ccc1Nc1ncc2c(n1)n1c(cc3ccccc31)c(=O)n2C [Compound I-2] . Reported pIC50?
6.60 to 7.30

Entry under review: Cn1c(=O)c2cc3ccccc3n2c2nc(Nc3cnn(CCN4CCOCC4)c3)ncc21 [Compound I-10] . Reported pIC50?
6.60 to 7.30

Entry under review: CCN1CCN(c2ccc(Nc3ncc4c(n3)n3c(cc5ccccc53)c(=O)n4C)cc2C(F)(F)F)CC1 [Compound I-25] . Reported pIC50?
6.60 to 7.30

Entry under review: CCn1c(=O)c2cc3ccccc3n2c2nc(Nc3ccc(N4CCN(C)CC4)cc3)ncc21 [Compound I-26] . Reported pIC50?
6.60 to 7.30
